Target or system: CK2α (Homo sapiens, UniProt P68400)
Sequence (P68400 whole entry): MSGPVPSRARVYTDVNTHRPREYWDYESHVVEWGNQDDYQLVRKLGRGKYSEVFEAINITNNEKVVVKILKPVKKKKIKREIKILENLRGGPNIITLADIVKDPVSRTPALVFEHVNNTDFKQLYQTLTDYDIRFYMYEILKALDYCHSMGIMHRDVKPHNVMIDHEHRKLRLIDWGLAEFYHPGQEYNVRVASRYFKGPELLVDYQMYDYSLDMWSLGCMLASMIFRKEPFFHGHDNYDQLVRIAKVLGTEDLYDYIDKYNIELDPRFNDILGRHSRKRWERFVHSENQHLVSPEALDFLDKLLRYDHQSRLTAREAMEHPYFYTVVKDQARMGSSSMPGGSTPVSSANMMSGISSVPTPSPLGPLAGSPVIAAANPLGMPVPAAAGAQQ
Assay name: biochemical
Condition parameters: read-out: % inhibition at 50 μM
Everything with inhibition at 50 µM lower than 20% is no; everything else, including exactly 20%, is yes.

Is the recorded value of inhibition at 50 µM equal to or greater than 20% for this compound? Brc1ccc2[nH]cc(Cc3nccs3)c2c1
no

Is the recorded value of inhibition at 50 µM equal to or greater than 20% for this compound? N#CCc1n[nH]c2ccc(Br)cc12
yes

Is the recorded value of inhibition at 50 µM equal to or greater than 20% for this compound? N#CCc1c[nH]c2ccc(Br)cc12
yes

Is the recorded value of inhibition at 50 µM equal to or greater than 20% for this compound? N#CCc1c[nH]c2ccc(C(F)(F)F)cc12
yes

Is the recorded value of inhibition at 50 µM equal to or greater than 20% for this compound? CCCc1cn(Cc2c[nH]c3ccc(Br)cc23)nn1
no

Is the recorded value of inhibition at 50 µM equal to or greater than 20% for this compound? N#CCc1c[nH]c2cc(Cl)c(Br)cc12
yes

Is the recorded value of inhibition at 50 µM equal to or greater than 20% for this compound? Brc1ccc2[nH]cc(Cc3ccc[nH]3)c2c1
no

Is the recorded value of inhibition at 50 µM equal to or greater than 20% for this compound? N#CCc1n[nH]c2cc(Cl)c(Br)cc12
yes

Is the recorded value of inhibition at 50 µM equal to or greater than 20% for this compound? N=C(Cc1c[nH]c2ccc(Br)cc12)NO
no

Is the recorded value of inhibition at 50 µM equal to or greater than 20% for this compound? N#CCc1c[nH]c2cc(Br)c(Br)cc12
yes

Is the recorded value of inhibition at 50 µM equal to or greater than 20% for this compound? CNCc1c[nH]c2ccc(Br)cc12
yes

Is the recorded value of inhibition at 50 µM equal to or greater than 20% for this compound? N#CCc1n[nH]c2cc(Br)c(Br)cc12
yes

All figures here come from paper PMC9667777.
